# target_entity: PDE2 (Bos taurus, UniProt P14099)
# Sequence (P14099 whole entry): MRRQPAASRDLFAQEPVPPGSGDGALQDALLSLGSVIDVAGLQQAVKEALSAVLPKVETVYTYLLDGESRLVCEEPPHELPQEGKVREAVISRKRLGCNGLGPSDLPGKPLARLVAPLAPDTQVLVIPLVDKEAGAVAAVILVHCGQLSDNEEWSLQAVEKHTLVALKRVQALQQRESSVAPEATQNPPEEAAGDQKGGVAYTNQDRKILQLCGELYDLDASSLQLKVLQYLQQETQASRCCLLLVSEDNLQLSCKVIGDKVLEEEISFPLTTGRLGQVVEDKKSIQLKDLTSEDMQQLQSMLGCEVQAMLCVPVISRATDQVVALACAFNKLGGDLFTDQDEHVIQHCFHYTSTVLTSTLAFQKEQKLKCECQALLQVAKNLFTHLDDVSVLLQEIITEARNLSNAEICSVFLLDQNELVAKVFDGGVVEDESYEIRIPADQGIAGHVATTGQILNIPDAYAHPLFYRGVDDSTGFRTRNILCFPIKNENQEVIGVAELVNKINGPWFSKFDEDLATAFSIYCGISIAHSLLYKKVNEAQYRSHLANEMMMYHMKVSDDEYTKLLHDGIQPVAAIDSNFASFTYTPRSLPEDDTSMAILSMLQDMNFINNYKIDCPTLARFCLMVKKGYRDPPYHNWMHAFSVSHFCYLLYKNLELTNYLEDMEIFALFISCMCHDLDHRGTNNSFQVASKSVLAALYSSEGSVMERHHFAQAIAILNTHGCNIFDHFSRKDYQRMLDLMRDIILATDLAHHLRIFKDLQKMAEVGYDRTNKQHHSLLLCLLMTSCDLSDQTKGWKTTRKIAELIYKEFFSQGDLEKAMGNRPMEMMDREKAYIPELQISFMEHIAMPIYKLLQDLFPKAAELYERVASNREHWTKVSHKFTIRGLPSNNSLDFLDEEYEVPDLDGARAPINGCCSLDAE
# assay_details: Radioenzymatic phosphodiesterase assay: PDE2 inhibition
# Assay type: biochemical, bovine
# assay_conditions: Table 1; 10 μM test compound; read-out: PDE2 percentage of inhibition at 10 μM
Rule: inhibition at 10 µM of 90% or more gives condition met; anything lower gives condition not met.

>  <chem_smiles>
COc1ccccc1-c1cc2c(cc1OC)N(C)C(=O)CN=C2c1cccc(C(N)=O)c1

>  <answer_label>
condition met

$$$$
>  <chem_smiles>
COc1cccc(C2=NCC(=O)N(C)c3ccc(-c4ccccc4)cc32)c1

>  <answer_label>
condition not met

$$$$
>  <chem_smiles>
COc1ccccc1-c1ccc2c(c1)C(c1cccc(C#N)c1)=NCC(=O)N2C

>  <answer_label>
condition not met

$$$$

// query Record CN1C(=O)CN=C(c2ccc(F)cc2)c2cc(-c3ccccc3)ccc21 ; criterion: inhibition at 10 µM no lower than 90%. Met?
// result condition not met

// query Try this compound too: COc1ccc(-c2ccc3c(c2)C(c2cccc(C(N)=O)c2)=NCC(=O)N3C)cc1
// result condition met

// query Param item: COc1ccccc1-c1cc2c(cc1OC)N(CCc1ccccc1)C(=O)CN=C2c1cccc(C#N)c1
// result condition not met

// query Entry to check: COc1cc2c(cc1-c1ccccc1)C(c1ccccc1Br)=NCC(=O)N2
// result condition not met

// query Moving on to COc1cc2c(cc1-c1ccccc1)C(c1ccc(Br)cc1)=NCC(=O)N2C
// result condition met

// query Same lookup for CN1C(=O)CN=C(c2cccc(C(F)(F)F)c2)c2cc(-c3ccccc3)ccc21 , please.
// result condition not met

// query # repeat for CN1C(=O)CN=C(c2cccc(C#N)c2)c2cc(-c3ccco3)ccc21
// result condition not met

// query Another compound: COc1cc2c(cc1-c1ccco1)C(c1cccc(C#N)c1)=NCC(=O)N2C
// result condition not met

// query Next compound up: COc1cc2c(cc1-c1ccccc1)C(c1cccc(Br)c1)=NCC(=O)N2C
// result condition met

// query Same for CN1C(=O)CN=C(c2cccc([N+](=O)[O-])c2)c2cc(-c3ccccc3)ccc21
// result condition not met
